Biological target: hBfl-1 (Homo sapiens)
Assay: DELFIA displacement assay, hBfl-1
Type: binding
pIC50: −log10 of the molar value.
quantity.name: pIC50

* Ac-AIAEQLRRIGDRF-NH2 [Compound 12] | < 5.00
